Listed next: entries and their corresponding pIC50.
System: MCF-7 (estrogen receptor positive breast cancer cells)
protocol text: Anti-proliferation assay (MTS/PMS, 72 h), MCF-7
Assay type: cell-based
condition context: Homo sapiens, MCF7, Table 6, para-para biphenyl core with substituted benzylamide
pIC50: −log10 of the molar value.
property: pIC50

Cc1cc(C(=O)Nc2ccc(-c3ccc(OC4CCN(C)CC4)cc3)cc2)ccc1Cl [Compound 41j] = 5.99
CN1CCC(Oc2ccc(-c3ccc(NC(=O)c4ccc5ncccc5c4)cc3)cc2)CC1 [Compound 45b] = 5.68
Cc1ccc(C(=O)Nc2ccc(-c3ccc(OC4CCN(C)CC4)cc3)cc2)cc1Cl [Compound 41k] = 5.64
CN1CCC(Oc2ccc(-c3ccc(NC(=O)c4ccc(-c5ccccc5)cc4)cc3)cc2)CC1 [Compound 41s] = 5.35
CN1CCC(Oc2ccc(-c3ccc(NC(=O)c4ccc(I)cc4)cc3)cc2)CC1 [Compound 41d] = 6.24
CN1CCC(Oc2ccc(-c3ccc(NC(=O)c4ccccc4)cc3)cc2)CC1 [Compound 41a] = 5.40
CN1CCC(Oc2ccc(-c3ccc(NC(=O)c4ccc(Cl)cc4Cl)cc3)cc2)CC1 [Compound 41p] = 5.86
CN1CCC(Oc2ccc(-c3ccc(NC(=O)c4cccc(Cl)c4)cc3)cc2)CC1 [Compound 41h] = 5.55
COc1cccc(C(=O)Nc2ccc(-c3ccc(OC4CCN(C)CC4)cc3)cc2)c1 [Compound 41i] = 5.27
CN1CCC(Oc2ccc(-c3ccc(NC(=O)c4ccc(Br)cc4)cc3)cc2)CC1 [Compound 41c] = 6.28
CN1CCC(Oc2ccc(-c3ccc(NC(=O)c4ccc(Cl)cc4)cc3)cc2)CC1 [Compound 41b] = 6.28
Cc1ccc(C(=O)Nc2ccc(-c3ccc(OC4CCN(C)CC4)cc3)cc2)cc1Br [Compound 41l] = 5.47
Cc1ccc(C(=O)Nc2ccc(-c3ccc(OC4CCN(C)CC4)cc3)cc2)cc1I [Compound 41m] = 5.93
CN1CCC(Oc2ccc(-c3ccc(NC(=O)c4cc(Cl)cc(Cl)c4)cc3)cc2)CC1 [Compound 41o] = 5.77
CN1CCC(Oc2ccc(-c3ccc(NC(=O)c4cc5ccccc5[nH]4)cc3)cc2)CC1 [Compound 47a] = 6.24
CN1CCC(Oc2ccc(-c3ccc(NC(=O)c4ccc(C(C)(C)C)cc4)cc3)cc2)CC1 [Compound 41g] = 5.97
CN1CCC(Oc2ccc(-c3ccc(NC(=O)c4cccc(-c5ccccc5)c4)cc3)cc2)CC1 [Compound 41r] = 5.94

---

In this section we review reported IC50 values for a set of molecules.
System: SKBr3 (estrogen receptor negative, HER2 over-expressing breast cancer cells)
protocol text: Anti-proliferation assay (MTS/PMS, 72 h), SKBr3
Type: cell-based
condition context: Homo sapiens, SK-BR-3, Table 4, para-para heteroatom substituted biphenyl core
property: IC50 (nM)

COc1cccc(-c2cc(C(=O)Nc3ccc(-c4ccc(OC5CCN(C)CC5)cc4)nc3)ccc2OC)c1 [Compound 19c] = 1210
COc1cccc(-c2cc(C(=O)Nc3ccc(-c4ccc(OC5CCN(C)CC5)nc4)cc3)ccc2OC)c1 [Compound 19a] = 1670
COc1cccc(-c2cc(C(=O)Nc3ccc(-c4ccc(OC5CCN(C)CC5)cn4)cc3)ccc2OC)c1 [Compound 19b] = 1910
COc1cccc(-c2cc(C(=O)Nc3ccc(-c4ccc(OC5CCN(C)CC5)cc4)cn3)ccc2OC)c1 [Compound 19d] = 1070
